Ref: the supplement of paper PMC7125110

B1: glmS ribozyme (parent)
chain: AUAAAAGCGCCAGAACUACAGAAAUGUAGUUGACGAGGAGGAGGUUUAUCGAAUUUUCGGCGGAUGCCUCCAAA

Variants of: B1
Assay: kcat; higher = faster cleavage; RNA array
Conditions: with glucosamine-6-phosphate
Fewer inactive variants are shown than the library holds.
Outcome Measure: kcat (s⁻¹)
One number for each entry, in s⁻¹.

Examples with answers:
INSERT INTO measurements (mutation_annotation, number) VALUES
  ('A12G U65G', 0.000107),
  ('G32U U65G', 0.00128),
  ('U54G G66A', 0.0134),
  ('C16A C58A', 0.000107),
  ('U31C U49G', '7.25e-05');

Each variant below has a reported value. Please supply its kcat.
1. G7U G51A G62A C70U
2. A12C G66U C70U
3. A52C C67G
4. G40A U65G
5. A6U C50G A52U C61G C68U

1. 1.17e-05
2. 0.00136
3. 1.74e-05
4. 0.00247
5. 3.87e-05
